- MEASUREMENT NOTES: Lipophilicity, log D of the compound at pH 7.4 by chromatography
- Format: physicochemical
- REPORTED CONDITIONS: buffer
Recorded chromatographic logD, one value per entry.
Just the number, please, no unit after it.

Below are worked cases with known answers.
COc1cc2[nH]c(=O)n(C)c2cc1NS(=O)(=O)c1cccc(Cl)c1Cl	3.7
CCCn1c(=O)[nH]c2cc(NS(=O)(=O)c3cccc(Cl)c3Cl)c(OC)cc21	3.2
COc1nc2[nH]c(=O)[nH]c2cc1NS(=O)(=O)c1cccc(Cl)c1Cl	3.2
COc1cccc2c1c(NS(=O)(=O)c1cccc(Cl)c1Cl)nn2C	5.3
COc1cc2c(cc1NS(=O)(=O)c1cccc(Cl)c1Cl)[nH]c(=O)n2C1CNC1	3
COc1cc2c(cc1NS(=O)(=O)c1cccc(Cl)c1Cl)[nH]c(=O)n2C1CN(C(C)=O)C1	3.7
COc1cc2c(cc1NS(=O)(=O)c1cccc(Cl)c1Cl)[nH]c(=O)n2C(C)C	4.7
COc1cc2c(cc1NS(=O)(=O)c1cccc(Cl)c1Cl)n(C)c(=O)n2C	4.4
COc1cc2c(cc1NS(=O)(=O)c1cccc(Cl)c1Cl)[nH]c(=O)n2C	3.8

Switching to the query record.
// chromatographic logD lookup, key: COc1cc2c(cc1NS(=O)(=O)c1cccc(Cl)c1Cl)[nH]c(=O)n2CC(N)=O
2.5

====

Recorded chromatographic logD, one value per entry.
- MEASUREMENT NOTES: Lipophilicity, log D of the compound at pH 7.4 by chromatography
- Assay type: physicochemical
- REPORTED CONDITIONS: buffer
Just the number, please, no unit after it.

Below are worked cases with known answers.
COc1cc2c(cc1NS(=O)(=O)c1cccc(Cl)c1Cl)[nH]c(=O)n2CCN(C)C	2.6
COc1cc2c(cc1NS(=O)(=O)c1cccc(Cl)c1Cl)[nH]c(=O)n2C1COC1	4.6
COc1cc2c(cc1NS(=O)(=O)c1cccc(Cl)c1Cl)[nH]c(=O)n2C(CO)CO	2.1
COc1cc2[nH]c(=O)n(CC(N)=O)c2cc1NS(=O)(=O)c1cccc(Cl)c1Cl	2.4
COc1cc2[nH]c(=O)[nH]c2cc1NS(=O)(=O)c1cccc(Cl)c1Cl	3.2

Switching to the query record.
// chromatographic logD lookup, key: COc1cc2[nH]c(=O)[nH]c2nc1NS(=O)(=O)c1cccc(Cl)c1Cl
2.4
